# EXPERIMENTAL_TARGET: Fra1 (Homo sapiens, UniProt P15407)
# Sequence (P15407 129-162): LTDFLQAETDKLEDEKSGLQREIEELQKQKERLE
# ASSAY_PROTOCOL: Isothermal titration calorimetry, Fra1W titrated into Fra1
# Type: binding
TEST_READOUT: Kd (nM)

1. Ac-KAAALKQKAYALKQQIAALKKQVAALKQKIAALK-NH2 [Fra1W]: 917

This collection of values is drawn from paper PMC8341738.
